B1: LINE1-full (parent)
chain: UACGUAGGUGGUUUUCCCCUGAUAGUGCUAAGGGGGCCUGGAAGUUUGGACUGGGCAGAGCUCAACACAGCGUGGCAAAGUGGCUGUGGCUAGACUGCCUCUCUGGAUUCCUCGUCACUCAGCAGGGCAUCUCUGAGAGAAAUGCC

Variants of: B1
Assay: self-cleavage, relative activity (ratio to wild type); higher = more cleavage; in vitro, sequencing; the parent is a self-cleaving ribozyme
Please enter 1 (yes) where self-cleavage is greater than or equal to 1, and 0 (no) where it is lower.

1. G36A U130C : 1 (yes)
2. G40A A117U : 1 (yes)
3. U20A U132C : 1 (yes)
4. G97U U104A : 0 (no)
5. A121G A124G : 0 (no)
6. C19U U26C : 1 (yes)
7. U62C C131A : 0 (no)
8. G34U A69G : 0 (no)
9. U15A U26C : 0 (no)
10. C84U G89A : 0 (no)

Origin of measurements: the RNAGym collection of RNA variant scans (doi:10.7554/elife.90254)
